# Assayed System: c-Src SH2
# Assay Notes: SH2 binding enrichment of the phosphorylated peptide, bacterial display (enrichment ratio); higher = better substrate or ligand; peptides without Tyr show the background;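 note: peptide library displayed on the E. coli surface as eCPX fusions, selected cells deep-sequenced, score is each peptide's frequency after selection divided by its frequency in the input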
// label = met if SH2 binding enrichment is not less than 0.5, otherwise not met

Examples from the recorded data:
Residues: KNKNRSKNILP [PTPN11_Y279_Y279S]
Answer Label: not met
//
Residues: SLLTDYSPQLQ [OTC_Y345]
Answer Label: met
//
Residues: LCHELYNTIRD [PBRM1_Y54_V49L]
Answer Label: met
//
Residues: NSGFFYKTAEE [CCT6B_Y250]
Answer Label: met
//
Residues: SADIAYNYRHG [PAH_Y166_F161S]
Answer Label: not met
//
Residues: HSLRDYKEALM [ADA2_Y337_H335R]
Answer Label: not met
//
Residues: GREFIYVDPMQ [PDGFRA_Y574_H570R_YF]
Answer Label: met
//
Residues: SFLFRYADDSF [RAB3C_Y50]
Answer Label: met

**Q:** Please check the record TDKLFYIYTSG [SLC27A4_Y243] and state if its SH2 binding enrichment is at or above 0.5.
**A:** not met

**Q:** How about this sequence: GMTLSYLFREP [NDUFS8_Y74]
**A:** met

###

# Assayed System: c-Src SH2
# Assay Notes: SH2 binding enrichment of the phosphorylated peptide, bacterial display (enrichment ratio); higher = better substrate or ligand; peptides without Tyr show the background
Categories are defined by ranges of SH2 binding enrichment, namely Low: < 0.5; Mid: ≥ 0.5 and < 0.6; High: ≥ 0.6

Residues: GEVKAYGAGLL [TH_Y419]
Answer Label: Low
//
Residues: EVVGGYSVHNA [MLH1_Y183_R182G]
Answer Label: Low
//
Residues: QRKRAYVEIEF [MAK16_Y282_YF]
Answer Label: High
//
Residues: LIQRNYKLAAQ [ALPK2_Y1975]
Answer Label: Low
//
Residues: RPSRQYATRDV [SCAMP3_Y35_L38R]
Answer Label: Low
//
Residues: MPQNEYIELHC [NSA2_Y6_R11C]
Answer Label: High

**Q:** Each sequence maps to one class by SH2 binding enrichment. Which class for LQLLGHRPVYS [CHST6_Y358_Y358H] ?
**A:** High

**Q:** How about TTKAKYKTPTY [PLD2_Y573] ?
**A:** Mid

**Q:** Follow-up entry: PFADPYFDFEI [ZC3H18_Y371_YF]
**A:** High

###

# Assayed System: SHP2-C SH2
# Assay Notes: SH2 binding enrichment of the phosphorylated peptide, bacterial display (enrichment ratio); higher = better substrate or ligand; peptides without Tyr show the background
Attribute Measured: SH2 binding enrichment
Response field accepts a number only; no unit should be typed.

Example cases with answers are listed next.
Residues: IKKFKYGIEEH [GJA1_Y137]
Value: 0.61
--
Residues: NTEGGYRCICA [CRELD1_Y328]
Value: 0.489
--
Residues: FADIAYSYRHG [PAH_Y166_N167S]
Value: 0.784
--
Residues: ARMTNCGLPRF [TSPAN12_Y138_Y138C_YF]
Value: 1

**Q:** Which SH2 binding enrichment is listed for LAAAGYDVKKN [H1-3_Y72_E75K] ?
**A:** 0.734

**Q:** Another sequence to check: QLHRKYCLSPR [HJURP_Y445_E444K]
**A:** 0.859
